Target: BACE1 (HTRF long substrate and FRET short substrate assays of Example 9D)
Assay: cell-based or functional assay
// EC50, FRET short substrate lookup, one value per entry
experimentalEndpoint: EC50, FRET short substrate (nM)

binder	assayResult
5881 (antibody, V domains shown, anti-BACE1 IgG) VH: EVQLLESGGGLVQPGGSLRLSCAASGFTFSKYAMSWVRQAPGKGLEWVSAISGSGISTPYADSVKGRFTISRDNSKNTLYLQMNSLRAEDTAVYYCAKGAGHGSYVKGWFDPWGQGTLVTVSS VL: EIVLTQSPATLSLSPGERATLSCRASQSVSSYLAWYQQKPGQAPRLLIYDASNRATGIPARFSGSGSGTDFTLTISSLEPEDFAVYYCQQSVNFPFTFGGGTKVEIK	5.93
5874 (antibody, V domains shown, anti-BACE1 IgG) VH: EVQLLESGGGLVQPGGSLRLSCAASGFTFGSYAMSWVRQAPGKGLEWVSATSGSGGSTYYADSVKGRFTISRDNSKNTLYLQMDSLRAEDTAVYYCAKGGSQWLYAPGSWFDPWGQGTLVTVSS VL: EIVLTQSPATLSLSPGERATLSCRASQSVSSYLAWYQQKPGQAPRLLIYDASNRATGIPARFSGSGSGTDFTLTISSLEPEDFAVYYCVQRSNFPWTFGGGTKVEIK	0.798
